Tested on: FGFR3;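 further: KINOMEscan kinase panel screen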
protocolConditions: concentration: 1 μM, replicates: in singlicate; n = 1
I would appreciate it if you labelled entries yes when %Inh is 7% or higher, otherwise no.

INPUT: Hello, I need to know if Cc1cccc(-c2cc(Nc3ccncc3)c3ccccc3n2)n1 has measured %Inh not below 7%. Thanks!
OUTPUT: yes

INPUT: Answer whether %Inh of CC(=O)Nc1nc2cnc(Nc3cc(NC(=O)c4cccc(CCC#N)c4)ccc3C)nc2s1 is greater than or equal to 7%.
OUTPUT: yes

INPUT: Check the entry Cc1cccc(-c2nc(Nc3ccncc3)c3ccccc3n2)n1 : does %Inh equal or exceed 7%?
OUTPUT: no

INPUT: Could you tell me if the measured %Inh of COc1cc2ncn(-c3cc(OCC4CCCO4)c(C(N)=O)s3)c2cc1OC (stereo not drawn) reaches 7% or more?
OUTPUT: yes

INPUT: Would you say CC1=C(C(=O)Nc2cc3cn[nH]c3cc2F)C(c2ccc(C(F)(F)F)cc2)CC(=O)N1 (stereo not drawn) shows %Inh at minimum 7%?
OUTPUT: yes

INPUT: Quick check: does Fc1cc(Cl)ccc1Nc1ccnc2cc(I)ccc12 have %Inh greater than or equal to 7%?
OUTPUT: no

INPUT: // inclusive: %Inh at least 7%? input: Cc1cc(NCC(c2ccccc2)c2ccccc2)nc(NCc2ccc(C(F)(F)F)cc2)n1
OUTPUT: yes
